Tested on: 422866-222-R5-J1-PDC complex spheroids viability;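 note: spheroids exposed to compounds for 7 days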
assay-comment: Anticancer human tumor 422866-222-R5-J1-PDC patient-derived pancreatic adenocarcinoma cell line growth inhibition [RAS]
condition-set: curve of first compound; second compound 0.003 µM
pIC50: −log10 of the molar value.
Parameter pIC50: see the listing below.

{"columns": ["compound", "pIC50"],
 "data": [
  ["NC1c2ccccc2OC12CCN(c1cnc3c(N4CCCc5ncccc54)n[nH]c3n1)CC2 (stereo not drawn) + CCn1c(-c2cccnc2C(C)OC)c2c3cc(ccc31)N1CCOC(CC(NC(=O)C(C(C)C)N(C)C(=O)C3(F)CCN(C(=O)C#CC(C)(C)N(C)C)CC3)C(=O)N3CCCC(N3)C(=O)OCC(C)(C)C2)C1", "> 7.50"],
  ["CC(Nc1ccc2c(c1)OCCn1cc(N3C(=O)OCC3C(F)F)nc1-2)C(N)=O (stereo not drawn) + CCn1c(-c2cc(N3CCN(C)CC3)cnc2C(C)OC)c2c3cc(ccc31)-c1csc(n1)CC(NC(=O)C1CC1C)C(=O)N1CCCC(N1)C(=O)OCC(C)(C)C2", "> 7.50"],
  ["CC(C)n1nc(-c2ccc3oc(N)nc3c2)c2c(N)ncnc21 + CCn1c(-c2cccnc2C(C)OC)c2c3cc(ccc31)N1CCOC(CC(NC(=O)C(C(C)C)N(C)C(=O)C3(F)CCN(C(=O)C#CC(C)(C)N(C)C)CC3)C(=O)N3CCCC(N3)C(=O)OCC(C)(C)C2)C1", "> 9.50"],
  ["CC1(O)CCCC1n1c(=O)c(C(F)F)cc2cnc(NC3CCN(S(C)(=O)=O)CC3)nc21 (stereo not drawn) + CCn1c(-c2cc(N3CCN(C)CC3)cnc2C(C)OC)c2c3cc(ccc31)-c1csc(n1)CC(NC(=O)C1CC1C)C(=O)N1CCCC(N1)C(=O)OCC(C)(C)C2", "> 7.50"],
  ["CCc1c2c(nc3ccc(O)cc13)-c1cc3c(c(=O)n1C2)COC(=O)[C@]3(O)CC + CCn1c(-c2cc(N3CCN(C)CC3)cnc2C(C)OC)c2c3cc(ccc31)-c1csc(n1)CC(NC(=O)C1CC1C)C(=O)N1CCCC(N1)C(=O)OCC(C)(C)C2", "> 9.02"],
  ["O=C(c1ccc(F)c(F)c1Nc1ccc(I)cc1F)N1CC(O)([C@@H]2CCCCN2)C1 + CCn1c(-c2cc(N3CCN(C)CC3)cnc2C(C)OC)c2c3cc(ccc31)-c1csc(n1)CC(NC(=O)C1CC1C)C(=O)N1CCCC(N1)C(=O)OCC(C)(C)C2", "> 8.50"],
  ["C[C@@H](NC(=O)c1ncnc(N)c1Cl)c1ncc(C(=O)Nc2cc(C(F)(F)F)c(Cl)cn2)s1 + CCn1c(-c2cccnc2C(C)OC)c2c3cc(ccc31)N1CCOC(CC(NC(=O)C(C(C)C)N(C)C(=O)C3(F)CCN(C(=O)C#CC(C)(C)N(C)C)CC3)C(=O)N3CCCC(N3)C(=O)OCC(C)(C)C2)C1", "> 7.50"],
  ["Nc1ccn(C2OC(CO)C(O)C2(F)F)c(=O)n1 (stereo not drawn) + CCn1c(-c2cc(N3CCN(C)CC3)cnc2C(C)OC)c2c3cc(ccc31)-c1csc(n1)CC(NC(=O)C1CC1C)C(=O)N1CCCC(N1)C(=O)OCC(C)(C)C2", "> 8.50"]
]}
